test: Mouse liver microsome stability; assay type: in vitro ADME; conditions: liver microsomes
Reported endpoint: half-life (min)
Give just the number in min; leave the unit off.

Challenge: Suppose we examine the compound C[C@H](CC(=O)N1CCC(O)(Cn2cnc3cc(NC(=O)CCN4CCN(C)CC4)ccc3c2=O)CC1)c1ccccc1 ; what half-life value has been reported?
Response given: 31
